Target: human P2X4 (Homo sapiens)
Sequence (Q99571 1-388): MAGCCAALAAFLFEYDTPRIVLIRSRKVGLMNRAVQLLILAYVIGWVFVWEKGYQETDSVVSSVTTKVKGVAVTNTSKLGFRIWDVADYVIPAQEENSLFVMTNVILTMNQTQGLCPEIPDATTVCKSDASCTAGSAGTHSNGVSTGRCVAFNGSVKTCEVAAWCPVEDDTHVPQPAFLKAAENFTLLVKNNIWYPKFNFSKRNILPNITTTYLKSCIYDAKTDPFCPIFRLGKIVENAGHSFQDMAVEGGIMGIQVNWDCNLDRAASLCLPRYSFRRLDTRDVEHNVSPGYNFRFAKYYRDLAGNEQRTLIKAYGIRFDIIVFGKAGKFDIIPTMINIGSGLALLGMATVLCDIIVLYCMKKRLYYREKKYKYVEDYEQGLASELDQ
Experiment: Human P2X4 HEK Cell FLIPR Assay
Assay type: cell-based
Conditions: HEK293, HEK293 cells, agonist Bz-ATP at EC80; percentage of maximal inhibition; read-out: Human P2X4 HEK Cells (FLIPR Assay) avg Efficacy [%]
metric_name: Emax (%)

Guide cases for Emax, answers given:
| compound_structure | quantity_unit | result |
| --- | --- | --- |
| NS(=O)(=O)c1cc(NC(=O)Cc2cccc(F)c2F)ccc1-n1cc(C(F)(F)F)cn1 | % | 88 |
| NS(=O)(=O)c1cc(NC(=O)Cc2ccccc2Cl)ccc1-n1cc(NC(=O)C(F)F)cn1 | % | 91 |
| NS(=O)(=O)c1cc(NC(=O)Cc2ccc(C(F)(F)F)cc2Cl)ccc1-n1cc(C(F)(F)F)nn1 | % | 69 |

[A] CCOc1ccccc1CC(=O)Nc1ccc(-n2cc(C#N)cn2)c(S(N)(=O)=O)c1
[B] CCOC(=O)c1cnn(-c2ccc(NC(=O)Cc3ccccc3Cl)cc2S(N)(=O)=O)c1
Which value of Emax is smaller, the one for A or the one for B ? Answer with the label corresponding to your selection.
B
(B: 35%, A: 85%)
